Entries and their measured pIC50 follow.
tested system: FAAH (Rattus norvegicus)
Construct: For the assay of FAAH activity in rat brain membrane (RBM) homogenates; tissue Charles River (animals); host or cells: rat whole brain, membrane fraction
protocol notes: FAAH inhibition, rat brain membrane homogenate assay
Type: biochemical
study conditions: rat brain homogenate; average activity; read-out: Rat Brain Extract FAAH IC50
pIC50: −log10 of the molar value.

For orientation, consider the following solved cases.
{"smiles record": "COc1cnc2c(c1)c(C(=O)C(=O)Nc1ccnc(OC)c1)c(C)n2Cc1ccc(Cl)cc1Cl", "pIC50": "> 7.00"}
{"smiles record": "COc1cc(NC(=O)C(=O)c2c(C)n(Cc3ccc(F)cn3)c3ccc(C)cc23)ccn1", "pIC50": "> 7.00"}
{"smiles record": "COc1cc(NC(=O)C(=O)c2c(C)n(Cc3ccc(Cl)cc3Cl)c3cc(F)c(OC)cc23)ccn1", "pIC50": "> 7.00"}
{"smiles record": "COc1ccc2c(c1)c(C(=O)C(=O)Nc1ccnc(OC)c1)c(C)n2Cc1ccncc1", "pIC50": "6.00 to 7.00"}
{"smiles record": "COc1cc(NC(=O)C(=O)c2c(C)n(Cc3ccc(Cl)cc3)c3ccc(C(F)(F)F)cc23)ccn1", "pIC50": "> 7.00"}

Please report the recorded pIC50 for CCN(CC)c1ccc2c(c1)c(C(=O)C(=O)Nc1ccnc(OC)c1)c(C)n2Cc1ccc(Cl)cc1 .
6.00 to 7.00

Please report the recorded pIC50 for COc1cc(NC(=O)C(=O)c2c(C)n(Cc3ccc(Cl)cc3)c3ncc(C)cc23)ccn1 .
> 7.00

Please report the recorded pIC50 for COc1cc(NC(=O)C(=O)c2c(C)n(Cc3ccc(Cl)cc3)c3ccc(C(=O)N(C)C)cc23)ccn1 .
6.00 to 7.00

====

tested system: FAAH (Rattus norvegicus, UniProt P97612)
Construct: For the assay of FAAH activity in rat brain membrane (RBM) homogenates; tissue Charles River (animals); host or cells: rat whole brain, membrane fraction
Sequence (P97612 1-579): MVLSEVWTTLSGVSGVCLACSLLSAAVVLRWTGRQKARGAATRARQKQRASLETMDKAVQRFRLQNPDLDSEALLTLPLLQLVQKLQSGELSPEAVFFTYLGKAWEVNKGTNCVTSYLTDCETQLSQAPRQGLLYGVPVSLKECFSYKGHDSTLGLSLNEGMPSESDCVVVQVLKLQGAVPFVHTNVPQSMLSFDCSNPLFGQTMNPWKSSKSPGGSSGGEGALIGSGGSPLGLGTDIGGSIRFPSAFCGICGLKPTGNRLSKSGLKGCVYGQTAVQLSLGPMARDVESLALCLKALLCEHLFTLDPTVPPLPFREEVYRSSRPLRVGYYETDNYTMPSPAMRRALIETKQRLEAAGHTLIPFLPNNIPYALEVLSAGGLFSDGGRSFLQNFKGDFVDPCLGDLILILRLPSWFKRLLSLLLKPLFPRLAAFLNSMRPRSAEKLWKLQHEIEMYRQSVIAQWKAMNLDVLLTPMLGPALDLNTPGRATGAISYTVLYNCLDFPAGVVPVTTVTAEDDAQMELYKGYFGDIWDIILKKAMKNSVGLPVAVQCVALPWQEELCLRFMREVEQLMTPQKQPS
protocol notes: FAAH inhibition, rat brain membrane homogenate assay
Format: biochemical
study conditions: rat brain homogenate; average activity; read-out: Rat Brain Extract FAAH IC50
pIC50: −log10 of the molar value.
experimental readout: pIC50

{"smiles record": "COc1cc(NC(=O)C(=O)c2c(C)n(Cc3ccc(Cl)cc3)c3cccnc23)ccn1", "pIC50": "> 7.00"}

Please report the recorded pIC50 for COc1cc(NC(=O)C(=O)c2c(C)n(Cc3ccc(Cl)cc3)c3ccc(NC(C)=O)cc23)ccn1 .
6.00 to 7.00

Please report the recorded pIC50 for COc1cc(NC(=O)C(=O)c2c(C)n(Cc3ccc(Cl)cc3)c3ccc(CN(C)C)cc23)ccn1 .
6.00 to 7.00

Please report the recorded pIC50 for COc1ccc2c(C(=O)C(=O)Nc3ccnc(OC)c3)c(C)n(Cc3ccc(Cl)cc3)c2c1 .
> 7.00

Please report the recorded pIC50 for COc1cc(NC(=O)C(=O)c2c(C)n(Cc3ccc(Cl)cn3)c3ccc(N(C)C)cc23)ccn1 .
> 7.00

Please report the recorded pIC50 for COc1ccc(Cn2c(C)c(C(=O)C(=O)Nc3ccnc(OC)c3)c3cc(OC)c(F)cc32)nc1 .
> 7.00

Please report the recorded pIC50 for COc1ccc2c(c1)c(C(=O)C(=O)Nc1ccnc(OC)c1)c(C)n2Cc1ncccn1 .
5.00 to 6.00

Please report the recorded pIC50 for COCc1ccc2c(c1)c(C(=O)C(=O)Nc1ccnc(OC)c1)c(C)n2Cc1ccc(Cl)cc1 .
> 7.00

====

List of pIC50 tested on human cannabinoid receptor, CB1 (Homo sapiens).
Sequence (P21554 whole entry): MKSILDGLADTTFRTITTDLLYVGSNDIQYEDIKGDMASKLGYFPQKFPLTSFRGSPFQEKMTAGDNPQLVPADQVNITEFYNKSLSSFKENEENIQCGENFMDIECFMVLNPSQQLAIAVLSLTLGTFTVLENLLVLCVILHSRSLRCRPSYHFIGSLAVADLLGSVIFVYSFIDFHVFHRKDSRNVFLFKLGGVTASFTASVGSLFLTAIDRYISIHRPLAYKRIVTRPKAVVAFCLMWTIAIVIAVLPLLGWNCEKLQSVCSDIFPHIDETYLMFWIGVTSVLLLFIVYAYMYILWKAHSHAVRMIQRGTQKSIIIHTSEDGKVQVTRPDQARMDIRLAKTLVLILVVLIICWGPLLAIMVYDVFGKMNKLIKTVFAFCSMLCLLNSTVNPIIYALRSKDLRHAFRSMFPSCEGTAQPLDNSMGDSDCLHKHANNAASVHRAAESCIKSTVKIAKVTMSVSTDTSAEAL
pIC50: −log10 of the molar value.

For orientation, consider the following solved cases.
{"molecule": "COc1cc(NC(=O)C(=O)c2c(C)n(Cc3ncc(F)cc3F)c3cc(F)c(OC)cc23)ccn1 [Compound 101]", "pIC50": "5.00 to 6.00"}
{"molecule": "COc1ccc2c(c1)c(C(=O)C(=O)Nc1ccnc(OC)c1)c(C)n2Cc1ncc(Cl)cc1OC [Compound 100]", "pIC50": "< 5.00"}

Continue with the next molecule.
Please report the recorded pIC50 for COc1cc(NC(=O)C(=O)c2c(C)n(Cc3ncc(Cl)cc3F)c3cc(F)c(OC)cc23)ccn1 [Compound 99] .
5.00 to 6.00

====

tested system: FAAH (Homo sapiens, UniProt O00519)
Construct: Reactions were initiated by adding 12.5 μg of brain microsome; tissue ABS, Inc; host or cells: human brain cerebral cortex, membrane/microsome fraction pooled from 3 donors
protocol notes: FAAH inhibition, human brain membrane homogenate assay
Type: biochemical
pIC50: −log10 of the molar value.
experimental readout: pIC50

Notebook: pull reported pIC50 for FAAH (Homo sapiens, UniProt O00519), entry COc1cc(NC(=O)C(=O)c2c(C)n(Cc3ncc(F)cc3F)c3ccc(C)cc23)ccn1 [Compound 88]
> 7.00

====

tested system: hERG channel (Homo sapiens)
Construct: expressed in transfected cells; host or cells: CHO (hERG-CHO), under Geneticin selection
Sequence (Q12809 whole entry): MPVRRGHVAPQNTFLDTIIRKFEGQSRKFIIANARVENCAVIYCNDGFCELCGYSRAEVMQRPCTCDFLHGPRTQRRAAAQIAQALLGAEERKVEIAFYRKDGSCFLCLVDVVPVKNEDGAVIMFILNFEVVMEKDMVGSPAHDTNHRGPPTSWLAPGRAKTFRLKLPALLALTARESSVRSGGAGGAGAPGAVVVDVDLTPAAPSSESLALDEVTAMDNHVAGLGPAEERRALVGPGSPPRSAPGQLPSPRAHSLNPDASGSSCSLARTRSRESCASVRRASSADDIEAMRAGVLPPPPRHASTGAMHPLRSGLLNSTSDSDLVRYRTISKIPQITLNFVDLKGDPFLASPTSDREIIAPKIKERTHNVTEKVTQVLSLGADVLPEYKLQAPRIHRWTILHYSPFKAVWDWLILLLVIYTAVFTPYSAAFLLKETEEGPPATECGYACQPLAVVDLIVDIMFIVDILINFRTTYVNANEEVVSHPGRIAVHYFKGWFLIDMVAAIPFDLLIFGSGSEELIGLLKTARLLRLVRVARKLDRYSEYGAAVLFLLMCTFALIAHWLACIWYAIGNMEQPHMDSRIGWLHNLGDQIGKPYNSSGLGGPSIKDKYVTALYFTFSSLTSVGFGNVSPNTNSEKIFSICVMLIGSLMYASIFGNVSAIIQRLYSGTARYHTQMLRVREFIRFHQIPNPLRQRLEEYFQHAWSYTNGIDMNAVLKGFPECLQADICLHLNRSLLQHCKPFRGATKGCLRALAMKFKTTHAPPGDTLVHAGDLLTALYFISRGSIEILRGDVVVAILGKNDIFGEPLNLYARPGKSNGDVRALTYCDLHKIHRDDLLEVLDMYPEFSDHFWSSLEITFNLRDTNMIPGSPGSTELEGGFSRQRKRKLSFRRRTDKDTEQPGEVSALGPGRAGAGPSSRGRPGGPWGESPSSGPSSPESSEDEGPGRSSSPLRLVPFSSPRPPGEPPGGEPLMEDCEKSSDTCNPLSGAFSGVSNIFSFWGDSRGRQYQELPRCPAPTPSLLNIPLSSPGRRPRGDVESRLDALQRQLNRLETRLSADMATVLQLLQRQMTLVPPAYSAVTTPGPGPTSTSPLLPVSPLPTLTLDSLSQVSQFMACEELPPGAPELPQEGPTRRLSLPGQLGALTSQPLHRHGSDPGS
protocol notes: hERG channel inhibition, automated patch clamp (IonWorks HT, hERG-CHO)
Assay type: cell-based
study conditions: CHO cells expressing hERG, 10 μM compound, 600 s incubation, read-out: hERG Channel Inhibition % (at 10 μM), vehicle-subtracted values
experimental readout: inhibition at 600 s, 10 µM

For orientation, consider the following solved cases.
{"smiles record": "COc1cc(NC(=O)C(=O)c2c(C)n(Cc3ccc(Cl)cc3)c3c(OC)cccc23)ccn1", "result": "< 25%"}
{"smiles record": "COc1cc(NC(=O)C(=O)c2c(C)n(Cc3ccc(Cl)cc3)c3cccnc23)ccn1", "result": "25 to 50%"}

Please report the recorded inhibition at 600 s, 10 µM for COc1cc(NC(=O)C(=O)c2c(C)n(Cc3ccc(Cl)cc3)c3ccc(OC)c(F)c23)ccn1 .
25 to 50%

====

tested system: FAAH (Rattus norvegicus)
Construct: For the assay of FAAH activity in rat brain membrane (RBM) homogenates; tissue Charles River (animals); host or cells: rat whole brain, membrane fraction
protocol notes: FAAH inhibition, rat brain membrane homogenate assay
Format: biochemical
pIC50: −log10 of the molar value.
experimental readout: pIC50

Notebook: pull reported pIC50 for FAAH (Rattus norvegicus), entry COc1cc(NC(=O)C(=O)c2c(C)n(Cc3ncc(F)cc3F)c3ccc(C)cc23)ccn1
> 7.00

====

tested system: FAAH (Homo sapiens)
Construct: Reactions were initiated by adding 12.5 μg of brain microsome; tissue ABS, Inc; host or cells: human brain cerebral cortex, membrane/microsome fraction pooled from 3 donors
Sequence (O00519 1-579): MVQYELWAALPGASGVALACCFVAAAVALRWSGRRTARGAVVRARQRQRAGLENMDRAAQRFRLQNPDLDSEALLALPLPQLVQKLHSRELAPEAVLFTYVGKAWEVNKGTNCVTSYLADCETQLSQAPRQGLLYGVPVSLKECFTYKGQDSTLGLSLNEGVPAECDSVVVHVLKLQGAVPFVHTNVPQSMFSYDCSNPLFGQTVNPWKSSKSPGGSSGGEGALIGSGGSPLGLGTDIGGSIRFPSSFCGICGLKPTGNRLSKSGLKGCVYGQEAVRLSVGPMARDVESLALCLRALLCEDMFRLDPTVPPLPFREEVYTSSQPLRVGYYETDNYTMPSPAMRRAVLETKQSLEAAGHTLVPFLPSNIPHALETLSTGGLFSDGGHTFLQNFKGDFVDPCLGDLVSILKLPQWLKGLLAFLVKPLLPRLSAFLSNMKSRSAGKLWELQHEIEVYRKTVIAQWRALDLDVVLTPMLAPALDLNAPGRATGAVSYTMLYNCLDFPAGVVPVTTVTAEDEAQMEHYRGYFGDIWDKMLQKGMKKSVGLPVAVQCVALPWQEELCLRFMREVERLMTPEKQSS
protocol notes: FAAH inhibition, human brain membrane homogenate assay
Format: biochemical
study conditions: human brain homogenate; average activity; read-out: Human brain Extract FAAH IC50
Entries and their measured IC50 follow.

For orientation, consider the following solved cases.
{"smiles record": "COc1cc(NC(=O)C(=O)c2c(C)n(Cc3ccc(Cl)cc3)c3ccc(C#N)cc23)ccn1", "result": "< 100 nM"}
{"smiles record": "COc1ccc2c(c1)c(C(=O)C(=O)Nc1ccnc(OC)c1)c(C)n2Cc1ncccn1", "result": "1000 to 10000 nM"}
{"smiles record": "COc1cc(NC(=O)C(=O)c2c(C)n(Cc3ccc(F)cc3F)c3cc(F)c(OC)cc23)ccn1", "result": "< 100 nM"}
{"smiles record": "COc1ccc2c(c1)c(C(=O)C(=O)Nc1ccnc(OC)c1)c(C)n2Cc1ccncc1", "result": "100 to 1000 nM"}
{"smiles record": "COc1cc(NC(=O)C(=O)c2c(C)n(Cc3ccc(Cl)cc3)c3cc(C)c(OC)cc23)ccn1", "result": "< 100 nM"}

Notebook: pull reported IC50 for FAAH (Homo sapiens), entry COc1cc(NC(=O)C(=O)c2c(C)n(Cc3ccc(Cl)cc3)c3ccc(N)cc23)ccn1
< 100 nM

Notebook: pull reported IC50 for FAAH (Homo sapiens), entry COc1ccc2c(c1)c(C(=O)C(=O)Nc1ccnc(O)c1)c(C)n2Cc1ccc(Cl)cc1
1000 to 10000 nM

Notebook: pull reported IC50 for FAAH (Homo sapiens), entry COc1cc(NC(=O)C(=O)c2c(C)n(Cc3ccc(Cl)cc3)c3ccc(N(C)C(=O)OC(C)(C)C)cc23)ccn1
100 to 1000 nM

Notebook: pull reported IC50 for FAAH (Homo sapiens), entry COc1cc(NC(=O)C(=O)c2c(C)n(Cc3ncc(F)cc3F)c3cc(F)c(OC)cc23)ccn1
< 100 nM

Notebook: pull reported IC50 for FAAH (Homo sapiens), entry COc1cc(NC(=O)C(=O)c2c(C)n(Cc3ccc(Cl)cn3)c3cc(F)c(OC)cc23)ccn1
< 100 nM

Notebook: pull reported IC50 for FAAH (Homo sapiens), entry COc1cc(NC(=O)C(=O)c2c(C)n(Cc3ccc(Cl)cn3)c3ccc(Cl)cc23)ccn1
< 100 nM
